Source: patent US7601716B2

Recorded IC50 by entry
testedOn: c-Met (cytoplasmic domain) (Homo sapiens)
Structures can show the parent of a compound that is named as a salt.
measuredAttribute: IC50

INSERT INTO measurements (compound, result) VALUES
  ('Clc1cccc(Cl)c1CN1CCNc2ncc(-c3cccnc3)cc21 [Example 138, trifluoroacetic acid salt]', '10 to 100 µM'),
  ('O=C(c1cnc2c(c1)N(Cc1cc(Cl)ccc1Cl)CCN2)N1CCN(c2ccccc2)CC1', '> 100 µM'),
  ('O=C(NC1CCN(Cc2ccccc2)CC1)c1cnc2c(c1)N(Cc1cc(Cl)ccc1Cl)CCN2', '10 to 100 µM'),
  ('O=C(c1ccc(-c2cnc3c(c2)N(Cc2ccccc2)CCN3)cc1)N1CCC(N2CCCC2)CC1', '10 to 100 µM'),
  ('CCOC(=O)c1ccc(-c2cnc3c(c2)N(Cc2c(Cl)cccc2Cl)C(=O)CN3)cc1', '10 to 100 µM'),
  ('FC(F)(F)c1ccc(CN2CCNc3ncc(-c4ccc(N5CCOCC5)nc4)cc32)o1', '> 100 µM'),
  ('FC(F)(F)c1ccc(Cl)cc1CN1CCNc2ncc(-c3cc[nH]c3)cc21', '10 to 100 µM');

----------
Each entry below lists one item and its recorded pIC50 value.
testedOn: c-Met (cytoplasmic domain) (Homo sapiens)
pIC50: −log10 of the molar value.
measuredAttribute: pIC50

INSERT INTO results (compound, testedon, measuredattribute, result) VALUES
  ('O=C1CNc2ncc(I)cc2N1Cc1cccc(F)c1C(F)(F)F [Example 178]', 'c-Met (cytoplasmic domain) (Homo sapiens)', 'pIC50', '4.00 to 5.00'),
  ('FC(F)(F)c1ccc(Cl)cc1CN1CCNc2ncc(-c3cn[nH]c3)cc21 [Example 200]', 'c-Met (cytoplasmic domain) (Homo sapiens)', 'pIC50', '5.00 to 6.00'),
  ('CN1CCN(C(=O)c2ccc(-c3cnc4c(c3)N(Cc3cc(F)c(F)cc3F)CCN4)cc2)CC1 [Example 86]', 'c-Met (cytoplasmic domain) (Homo sapiens)', 'pIC50', '5.00 to 6.00'),
  ('CC(c1cc(F)c(F)cc1F)N1CCNc2ncc(-c3ccc(C(=O)N4CCN(C)CC4)cc3)cc21 (centres unmarked) [Example 149]', 'c-Met (cytoplasmic domain) (Homo sapiens)', 'pIC50', '< 4.00'),
  ('CC(c1cc(F)ccc1F)N1CCNc2ncc(I)cc21 (centres unmarked) [Example 153]', 'c-Met (cytoplasmic domain) (Homo sapiens)', 'pIC50', '< 4.00');

----------
Tick met if melting point is 200 °C or greater. Tick not met if melting point is less than 200 °C.

INSERT INTO assay_data (moleculesmiles, grouplabel) VALUES
  ('FC(F)(F)c1ccc(Cl)cc1CN1CCNc2ncc(-c3ccnc(N4CCNCC4)c3)cc21', 'not met'),
  ('CN(C)CC#Cc1cnc2c(c1)N(Cc1cc(Cl)ccc1Cl)CCN2', 'not met'),
  ('O=C(NCCN1CCCC1)c1ccc(-c2cnc3c(c2)N(Cc2c(Cl)cccc2Cl)C(=O)CN3)cc1', 'met'),
  ('CN(C)CC(=O)NCC#Cc1cnc2c(c1)N(Cc1c(Cl)cccc1Cl)CCN2', 'met'),
  ('O=C1CNc2ncc(-c3ccc(C(=O)N4CCC[C@H]4CN4CCCC4)cc3)cc2N1Cc1cc(Cl)ccc1Cl', 'not met'),
  ('CN1CCN(C(=O)c2ccc(-c3cnc4c(c3)N(Cc3cc(F)ccc3F)CCN4)cc2)CC1', 'not met'),
  ('O=C1CNc2ncc(I)cc2N1Cc1ccccc1', 'met');

----------
testedOn: c-Met (cytoplasmic domain) (Homo sapiens, UniProt P08581)
Construct: Reactions were initiated with 30 ng/mL c-Met (cytoplasmic domain, Invitrogen Corporation #PV3143); purchased Invitrogen Corporation PV3143
Sequence (P08581 956-1390 limits assumed): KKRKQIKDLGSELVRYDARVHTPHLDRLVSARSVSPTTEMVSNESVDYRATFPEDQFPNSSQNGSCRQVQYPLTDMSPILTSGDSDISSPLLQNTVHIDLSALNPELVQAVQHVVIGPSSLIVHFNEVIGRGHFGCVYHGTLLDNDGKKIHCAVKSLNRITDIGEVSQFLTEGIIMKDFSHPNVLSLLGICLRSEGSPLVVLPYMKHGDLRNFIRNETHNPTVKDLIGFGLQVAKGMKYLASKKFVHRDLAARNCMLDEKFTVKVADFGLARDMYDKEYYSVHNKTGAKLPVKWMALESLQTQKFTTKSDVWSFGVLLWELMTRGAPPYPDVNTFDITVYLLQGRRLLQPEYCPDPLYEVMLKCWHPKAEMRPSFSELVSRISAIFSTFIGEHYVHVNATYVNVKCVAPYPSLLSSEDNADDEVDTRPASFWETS
assayOverview: c-Met Kinase Assay (ELISA/TRF, PLC-γ substrate)
Format: biochemical
experimentalSetup: 3 μM ATP (Km level); read-out: c-Met Kinase Inhibition (IC50)
pIC50: −log10 of the molar value. Where a name gives a salt, the structure may show the parent alone.
We begin with a simple list: items and their reported pIC50.
measuredAttribute: pIC50

INSERT INTO assay_data (molecule, measuredattribute, result) VALUES
  ('O=C(c1ccc(-c2cnc3c(c2)N(Cc2cc(F)ccc2F)CCN3)cn1)N1CCOCC1 [Example 76]', 'pIC50', '5.00 to 6.00'),
  ('Clc1ccc(Cl)c(CN2CCNc3ncc(-c4ccc(Cl)nc4)cc32)c1 [Example 165]', 'pIC50', '< 4.00'),
  ('Ic1cnc2c(c1)N(Cc1ccccc1)CCN2 [Example 33]', 'pIC50', '< 4.00'),
  ('O=C(c1ccc(-c2cnc3c(c2)N(Cc2cc(F)ccc2F)CCN3)cc1)N1CCOCC1 [Example 68]', 'pIC50', '5.00 to 6.00'),
  ('c1ccc(CN2CCNc3ncc(-c4cccnc4)cc32)cc1 [Example 34]', 'pIC50', '4.00 to 5.00'),
  ('O=C1CNc2ncc(-c3ccc(C(=O)N4CCC[C@H]4CN4CCCC4)cc3)cc2N1Cc1ccccc1 [Example 13, trifluoroacetic acid salt]', 'pIC50', '< 4.00'),
  ('CN1CCN(C(=O)c2ccc(-c3cnc4c(c3)C(Oc3cccc(Cl)c3)CCN4)cc2)CC1 (stereo not shown) [Example 274]', 'pIC50', '5.00 to 6.00'),
  ('CN(C)CCCCNC(=O)c1cnc2c(c1)N(Cc1cc(Cl)ccc1C(F)(F)F)CCN2 [Example 295]', 'pIC50', '5.00 to 6.00'),
  ('CN1CCN(c2ncc(-c3cnc4c(c3)N(Cc3c(F)ccc(F)c3Cl)CCN4)cn2)CC1 [Example 106]', 'pIC50', '5.00 to 6.00'),
  ('CN1CCN(c2cc(-c3cnc4c(c3)N(Cc3ccc(C(F)(F)F)o3)CCN4)ccn2)CC1 [Example 293]', 'pIC50', '5.00 to 6.00'),
  ('CCOC(=O)c1ccc(-c2cnc3c(c2)N(Cc2ccccc2)C(=O)CN3)cc1 [Example 9]', 'pIC50', '< 4.00'),
  ('O=C1CNc2ncc(-c3ccc(C(=O)N4CCC[C@H]4CN4CCCC4)cc3)cc2N1Cc1cc(Cl)ccc1Cl [Example 157]', 'pIC50', '6.00 to 7.00'),
  ('CN1CCN(c2ccc(-c3cnc4c(c3)C(Cc3cc(F)ccc3F)CCN4)cn2)CC1 (stereo not shown) [Example 286]', 'pIC50', '< 4.00'),
  ('O=C(c1cnc2c(c1)N(Cc1cc(Cl)ccc1Cl)CCN2)N1CCN(CCc2ccccn2)CC1 [Example 229]', 'pIC50', '5.00 to 6.00'),
  ('CC(=O)N1CCN(c2cc(-c3cnc4c(c3)N(Cc3cc(Cl)ccc3C(F)(F)F)CCN4)ccn2)CC1 [Example 199]', 'pIC50', '5.00 to 6.00'),
  ('O=C1CNc2ncc(-c3cccc(C(=O)N4CCC[C@H]4CN4CCCC4)c3)cc2N1Cc1ccccc1 [Example 18, trifluoroacetic acid salt]', 'pIC50', '4.00 to 5.00');

----------
Listed here: compounds with reported IC50 for baculovirus-expressed ALK (Homo sapiens, UniProt Q9UM73).
measuredAttribute: IC50

INSERT INTO assay_data (compound, result) VALUES
  ('CN1CCN(c2cc(-c3cnc4c(c3)N(Cc3ccc(C(F)(F)F)o3)CCN4)ccn2)CC1 [Example 293]', '1000 to 10000 nM'),
  ('O=C(c1cccc(-c2cnc3c(c2)N(Cc2cc(Cl)ccc2C(F)(F)F)CCN3)c1)N1CCN(Cc2ccc(Cl)cc2)CC1 [Example 321]', '100 to 1000 nM'),
  ('O=C(NCc1cccc(Cl)c1)c1ccc(-c2cnc3c(c2)N(Cc2cc(Cl)ccc2C(F)(F)F)CCN3)cc1 [Example 414]', '100 to 1000 nM'),
  ('NS(=O)(=O)c1ccc(CNC(=O)c2cccc(-c3cnc4c(c3)N(Cc3cc(Cl)ccc3C(F)(F)F)CCN4)c2)cc1 [Example 363]', '100 to 1000 nM'),
  ('O=C(NC1CCc2ccccc21)c1ccc(-c2cnc3c(c2)N(Cc2cc(Cl)ccc2C(F)(F)F)CCN3)cc1 (stereo not shown) [Example 410]', '100 to 1000 nM'),
  ('CN1CCN(c2ccc(-c3cnc4c(c3)N(C(=O)Cc3cc(F)ccc3F)CCN4)cn2)CC1 [Example 113]', '1000 to 10000 nM'),
  ('O=C(c1ccc(-c2cnc3c(c2)N(C(=O)Cc2ccccc2)CCN3)cc1)N1CCC(N2CCCC2)CC1 [Example 111]', '> 100000 nM'),
  ('O=C(c1cnc2c(c1)N(Cc1cc(Cl)ccc1Cl)CCN2)N1CCN(c2ccc(Cl)cc2)CC1 [Example 250]', '100 to 1000 nM'),
  ('CC(C)NC(=O)CN1CCN(C(=O)c2ccc(-c3cnc4c(c3)N(Cc3cc(Cl)ccc3C(F)(F)F)CCN4)cc2)CC1 [Example 402]', '< 100 nM'),
  ('CCOC(=O)c1cnc2c(c1)N(Cc1cc(F)ccc1F)CCN2 [Example 75]', '100 to 1000 nM'),
  ('CN1CCN(c2ccc(-c3cnc4c(c3)C(Oc3c(F)ccc(F)c3Cl)CCN4)cn2)CC1 (stereo not shown) [Example 273]', '10000 to 100000 nM'),
  ('O=C(O)c1ccc(-c2cnc3c(c2)N(Cc2cc(Cl)ccc2C(F)(F)F)CCN3)cc1 [Example 195]', '1000 to 10000 nM'),
  ('O=C1CNc2ncc(I)cc2N1Cc1c(F)ccc(F)c1Cl [Example 3]', '10000 to 100000 nM'),
  ('Fc1ccc(F)c(CN2CCNc3ncc(-c4cccc(N5CCOCC5)c4)cc32)c1Cl [Example 189]', '< 100 nM'),
  ('COC(=O)C(C)(C)Nc1ncc(I)cc1[N+](=O)[O-] [Example 90]', '> 100000 nM'),
  ('FC(F)(F)c1ccc(Cl)c(CN2CCNc3ncc(I)cc32)c1 [Example 119]', '> 100000 nM');
